assay: In vitro mouse liver microsomes; format: in vitro ADME; conditions: 5 μM compound, mean of three determinations
measurement.label: MLM Stab. half-life (min)

molecule	MLM Stab. half-life [min]
COc1cccc(Cn2cc(CNC(=O)OCc3cn(Cc4cccc(OC)c4)nn3)nn2)c1 [Compound 34b]	6

P. COc1ccc(Cn2cc(CNC(=O)OCc3cn(Cc4cccc(OC)c4)nn3)nn2)cc1 [Compound 40]
Q. COc1cc(Cn2cc(COC(=O)NC3CCCCC3)nn2)cc(OC)c1 [Compound 27]
Quick one: lower MLM Stab. half-life, P or Q ? Identify your selection by its label.
Q

---

molecular target: human FAAH-1 (Homo sapiens); assay: In vitro human FAAH fluorescent assay; format: biochemical; settings: h-FAAH-1 IC50 relative to r-FAAH IC50
Sequence (O00519 whole entry): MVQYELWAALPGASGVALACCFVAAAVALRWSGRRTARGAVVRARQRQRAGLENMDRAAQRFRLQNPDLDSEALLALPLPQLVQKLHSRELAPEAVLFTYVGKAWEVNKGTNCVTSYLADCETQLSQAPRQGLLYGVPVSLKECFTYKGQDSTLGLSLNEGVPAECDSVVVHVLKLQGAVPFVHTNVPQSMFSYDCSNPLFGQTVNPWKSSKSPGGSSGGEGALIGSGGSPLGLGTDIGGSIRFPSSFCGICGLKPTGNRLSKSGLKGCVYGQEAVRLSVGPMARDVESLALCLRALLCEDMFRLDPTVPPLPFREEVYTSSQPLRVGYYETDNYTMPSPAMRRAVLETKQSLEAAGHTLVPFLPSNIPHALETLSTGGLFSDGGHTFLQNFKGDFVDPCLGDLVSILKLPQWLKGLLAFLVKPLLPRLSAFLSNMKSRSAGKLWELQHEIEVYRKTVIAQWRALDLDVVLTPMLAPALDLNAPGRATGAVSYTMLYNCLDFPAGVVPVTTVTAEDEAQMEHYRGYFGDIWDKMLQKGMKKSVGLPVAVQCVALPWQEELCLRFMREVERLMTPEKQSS
measurement.label: Loss of potency on h-FAAH-1 vs r-FAAH (fold)

molecule	Loss of potency on h-FAAH-1 vs r-FAAH [fold]
COc1ccccc1Cn1cc(COC(=O)NC2CCCCC2)nn1 [Compound 26a]	240

1. O=C(NC1CCCCC1)OCc1cn(Cc2ccccc2Cl)nn1 [Compound 24a]
2. O=C(NC1CCCCC1)OCc1cn(Cc2ccccc2F)nn1 [Compound 23a]
Quick one: lower Loss of potency on h-FAAH-1 vs r-FAAH, 1 or 2 ? Identify your selection by its label.
2
(2: 62 fold, 1: 172 fold)
